In this section, each of the compounds is paired with its reported growth.
Test system: NCI/ADR-RES ovarian
assayNotes: NCI-60 one-dose screen, 48 h (100 = growth as untreated, 0 = no growth, -100 = all killed)
conditionDetails: 10 µM
About 83,000 compounds went through this panel and 20% of them were active in at least one assay; those are over-represented in the sample as a whole.

- compound: "CCN(CC)CCOc1ccc2c(c1O)C(=O)c1ccccc1C2=O"
  studyTarget: "NCI/ADR-RES ovarian"
  quantityUnit: "%"
  growth: 72
- compound: "CN1CCc2c(sc3nc4n(-c5ccc(Cl)cc5)c(=O)[nH]n4c(=O)c23)C1"
  studyTarget: "NCI/ADR-RES ovarian"
  quantityUnit: "%"
  growth: 99
- compound: "COC(=O)c1cc2oc(/C=C3/SC(=S)N(N)C3=O)cc2n1Cc1ccccc1"
  studyTarget: "NCI/ADR-RES ovarian"
  quantityUnit: "%"
  growth: 52.5
- compound: "O=S(=O)(O)c1ccc(Cl)cc1"
  studyTarget: "NCI/ADR-RES ovarian"
  quantityUnit: "%"
  growth: 99
- compound: "COc1cc2cc(Oc3ccc(NC(=O)c4ccc(Cl)c(C(F)(F)F)c4)cc3)c(C)nc2cc1OC"
  studyTarget: "NCI/ADR-RES ovarian"
  quantityUnit: "%"
  growth: 14.1
- compound: "COc1ccc(C(=O)N/N=C/c2cc(C(F)(F)F)ccc2Cl)cc1"
  studyTarget: "NCI/ADR-RES ovarian"
  quantityUnit: "%"
  growth: 90.9
- compound: "C[C@H]1[C@H](OC(=O)CCC(=O)O)O[C@@H]2O[C@]3(C)CC[C@H]4[C@H](C)CC[C@@H]1[C@@]24OO3"
  studyTarget: "NCI/ADR-RES ovarian"
  quantityUnit: "%"
  growth: 23.6
- compound: "CN1C(=O)C2(Nc3cc(Cl)ccc3S2)c2cc(Cl)ccc21 (stereo not given)"
  studyTarget: "NCI/ADR-RES ovarian"
  quantityUnit: "%"
  growth: 93.6
- compound: "CCCN1CN2C(=O)N3CN(CCC)CN4C(=S)N(C1)C2C34 (stereo not given)"
  studyTarget: "NCI/ADR-RES ovarian"
  quantityUnit: "%"
  growth: 103
- compound: "COc1cc(Cc2cc(-c3ccccc3)n[nH]c2=O)cc(OC)c1OC"
  studyTarget: "NCI/ADR-RES ovarian"
  quantityUnit: "%"
  growth: 28.8

* * *

Test system: OVCAR-4 ovarian
assayNotes: NCI-60 one-dose screen, 48 h (100 = growth as untreated, 0 = no growth, -100 = all killed)
conditionDetails: 10 µM
Compounds without any hit were thinned out: in the full panel of roughly 83,000, 20% have a hit.

- compoundStructureString: "NS(=O)(=O)c1ccc(N2N=C(c3ccccc3)CCC2=O)cc1"
  quantityUnit: "%"
  growth: 95.8
- compoundStructureString: "CCCCCCCCCCOC(c1ccccc1)c1ccccc1"
  quantityUnit: "%"
  growth: 99.8
- compoundStructureString: "CCn1c2ccc(O)cc2c2c(C)c3c[n+](C)ccc3c(C)c21"
  quantityUnit: "%"
  growth: 52
- compoundStructureString: "Cc1cc(Cl)ccc1Nc1nc(C(F)(F)F)ccc1C(=O)N/N=C/c1c(Cl)cccc1Cl"
  quantityUnit: "%"
  growth: 7.14
- compoundStructureString: "COc1ccc(Cl)cc1Nc1nc(C(F)(F)F)ccc1C(=O)N/N=C/c1cc(OC)c(OC)c(OC)c1"
  quantityUnit: "%"
  growth: 23.7
